System: CH1
protocol: In vitro inhibition of human ovarian cell line, resistant to cisplatin (CH1cisR).
Type: functional, cell-based
measured-metric: IC50 (µM)

1 = CISPLATIN
2 = CARBOPLATIN
Returns: the argument ( 1 or 2 ) having the larger IC50. Mark your answer with the label of the selected entry. 2
(2: 14 µM, 1: 1.2 µM)
